runDescription: Serum stability in RPMI1640 medium containing 10% fetal bovine serum
Assay type: in vitro ADME
testConditions: bovine, 72 hr, read-out: Relative Percent Remaining at 72 hr

>  <molecule>
CC(=O)O[C@H]1C(=O)[C@@]2(C)[C@H]([C@H](OC(=O)c3ccccc3)[C@]3(O)C[C@H](OC(=O)[C@H](O)[C@@H](NC(=O)c4ccccc4)c4ccccc4)C(C)=C1C3(C)C)[C@]1(OC(C)=O)CO[C@@H]1C[C@@H]2O [Paclitaxel, reference compound]

>  <measurementQualifier>
<

>  <remaining at 72 h, 10 μM / %>
3

$$$$
>  <molecule>
CC[C@]1(O)C[C@@H]2CN(CCc3c([nH]c4ccccc34)[C@@](C(=O)OC)(c3cc4c(cc3OC)N(C)[C@H]3[C@@](O)(C(=O)OC)[C@H](OC(C)=O)[C@]5(CC)C=CCN6CC[C@]43[C@@H]65)C2)C1 [Vinblastine, reference compound]

>  <measurementQualifier>
=

>  <remaining at 72 h, 10 μM / %>
67

$$$$
>  <molecule>
CC[C@H](C)[C@H](NC(=O)[C@H](Cc1ccc(O)cc1)NC(=O)OCc1ccccc1)C(=O)N[C@@H](Cc1ccc(O)cc1)C(=O)NCC(=O)N[C@@H](CO)C(=O)N[C@@H](Cc1ccccc1)C(=O)N[C@@H](CCCCN)C(=O)NCCOCCOCCOCCNC(=O)[C@@]1(O)[C@H](O)[C@]2(CC)C=CCN3CC[C@@]4(c5cc([C@@]6(C(=O)OC)C[C@@H]7CN(CCc8c6[nH]c6ccccc86)C[C@](O)(CC)C7)c(OC)cc5N(C)[C@@H]14)[C@@H]32

>  <measurementQualifier>
=

>  <remaining at 72 h, 10 μM / %>
61

$$$$
>  <molecule>
CC[C@H](C)[C@H](NC(=O)[C@H](Cc1ccc(O)cc1)NC(=O)C(C)(C)C)C(=O)N[C@@H](Cc1ccc(O)cc1)C(=O)NCC(=O)N[C@@H](CO)C(=O)N[C@@H](Cc1ccccc1)C(=O)N[C@@H](CCCNC(=N)N)C(=O)NCCCOCCOCCOCCCNC(=O)O[C@H]1C(=O)[C@@]2(C)[C@H]([C@H](OC(=O)c3ccccc3)[C@]3(O)C[C@H](OC(=O)[C@H](O)[C@@H](NC(=O)c4ccccc4)c4ccccc4)C(C)=C1C3(C)C)[C@]1(OC(C)=O)CO[C@@H]1C[C@@H]2O [Pv-YIYGSFR-PEG(13)-10Ca-PXL]

>  <measurementQualifier>
=

>  <remaining at 72 h, 10 μM / %>
64

$$$$
>  <molecule>
CC[C@H](C)[C@H](NC(=O)[C@H](Cc1ccc(O)cc1)NC(=O)[C@H](CCC(=O)O)NC(C)=O)C(=O)N[C@@H](Cc1ccc(O)cc1)C(=O)NCC(=O)N[C@@H](CO)C(=O)N[C@@H](Cc1ccccc1)C(=O)N[C@@H](CCCCN)C(=O)NCCCOCCOCCOCCCNC(=O)O[C@H]1C(=O)[C@@]2(C)[C@H]([C@H](OC(=O)c3ccccc3)[C@]3(O)C[C@H](OC(=O)[C@H](O)[C@@H](NC(=O)c4ccccc4)c4ccccc4)C(C)=C1C3(C)C)[C@]1(OC(C)=O)CO[C@@H]1C[C@@H]2O

>  <measurementQualifier>
=

>  <remaining at 72 h, 10 μM / %>
22

$$$$
